Where these numbers come from: ChEMBL document CHEMBL5614382

molecular target: Ephrin type-A receptor 2 (Mus musculus, UniProt Q03145); assay: Displacement of biotinylated Fc-tagged ephrin-A1 from C/N-terminal 6-His tagged mouse recombinant EphA2 (Ala22 to Ala535 residues) preincubated for 1 hr followed by ephrin-A1-Fc addition and measured after 4 to 5 hrs by ELISA assay
Sequence (Q03145 whole entry): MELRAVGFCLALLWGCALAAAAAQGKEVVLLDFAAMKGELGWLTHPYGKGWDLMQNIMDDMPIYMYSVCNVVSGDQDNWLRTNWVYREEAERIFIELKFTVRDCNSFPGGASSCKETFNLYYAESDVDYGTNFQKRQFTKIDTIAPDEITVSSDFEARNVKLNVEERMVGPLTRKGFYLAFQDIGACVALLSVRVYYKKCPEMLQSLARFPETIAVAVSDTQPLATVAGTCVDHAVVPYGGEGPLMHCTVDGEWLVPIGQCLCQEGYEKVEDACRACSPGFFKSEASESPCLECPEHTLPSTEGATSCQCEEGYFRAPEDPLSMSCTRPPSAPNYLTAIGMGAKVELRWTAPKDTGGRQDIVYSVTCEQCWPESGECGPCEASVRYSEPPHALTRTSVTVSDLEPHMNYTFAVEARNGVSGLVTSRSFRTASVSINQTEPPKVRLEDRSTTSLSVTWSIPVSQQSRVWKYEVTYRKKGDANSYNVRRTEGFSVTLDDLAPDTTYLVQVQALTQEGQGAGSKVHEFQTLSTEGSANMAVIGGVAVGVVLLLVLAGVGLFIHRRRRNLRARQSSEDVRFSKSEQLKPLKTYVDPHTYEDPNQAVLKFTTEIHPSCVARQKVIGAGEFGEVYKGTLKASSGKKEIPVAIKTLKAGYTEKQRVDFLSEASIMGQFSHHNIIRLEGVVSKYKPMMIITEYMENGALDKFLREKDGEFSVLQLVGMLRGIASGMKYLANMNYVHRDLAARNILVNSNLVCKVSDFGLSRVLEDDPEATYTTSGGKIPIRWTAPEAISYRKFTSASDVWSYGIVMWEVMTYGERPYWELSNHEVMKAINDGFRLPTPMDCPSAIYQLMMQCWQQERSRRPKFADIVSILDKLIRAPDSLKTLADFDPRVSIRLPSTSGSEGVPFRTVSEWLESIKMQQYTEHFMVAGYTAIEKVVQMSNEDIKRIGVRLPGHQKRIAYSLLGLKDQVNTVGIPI
measuredQuantity: IC50 (µM)

| inputSmiles | testResult |
| --- | --- |
| C[C@H](CCC(=O)N[C@H](CC(=O)O)Cc1cn(S(=O)(=O)c2ccc(N)cc2)c2ccccc12)[C@H]1CC[C@H]2[C@@H]3CC=C4C[C@@H](O)CC[C@]4(C)[C@H]3CC[C@]12C | 4.7 |
| C[C@H](CCC(=O)N[C@H](CC(=O)O)Cc1cn(S(=O)(=O)c2ccc(-c3ccccc3)cc2)c2ccccc12)[C@H]1CC[C@H]2[C@@H]3CC=C4C[C@@H](O)CC[C@]4(C)[C@H]3CC[C@]12C | 20 |
| Cc1ccc(S(=O)(=O)n2cc(C[C@@H](CC(=O)O)NC(=O)CC[C@@H](C)[C@H]3CC[C@H]4[C@@H]5CC=C6C[C@@H](O)CC[C@]6(C)[C@H]5CC[C@]34C)c3ccccc32)cc1 | 8.3 |
| C[C@H](CCC(=O)N[C@H](CC(=O)O)Cc1cn(S(=O)(=O)c2ccc(F)cc2)c2ccccc12)[C@H]1CC[C@H]2[C@@H]3CC=C4C[C@@H](O)CC[C@]4(C)[C@H]3CC[C@]12C | 8.2 |
| C[C@H](CCC(=O)N[C@H](CC(=O)O)Cc1cn(S(=O)(=O)c2ccc(C(F)(F)F)cc2)c2ccccc12)[C@H]1CC[C@H]2[C@@H]3CC=C4C[C@@H](O)CC[C@]4(C)[C@H]3CC[C@]12C | 2.6 |
